tested on: bovine gamma globulin (BGG); details: excipient 50 mg/mL
Counter-ions that a name gives are not always drawn.
# Viscosity Reduction values compiled below
Give your result in % as a bare value.

Examples with answers:
[[record]]
molecule = "CCN(CC)CCOC(=O)c1ccc(N)cc1 [Procaine HCl]"
tested_target = "bovine gamma globulin (BGG)"
test_value = 47

[[record]]
molecule = "Nc1cccnc1 [3-aminopyridine]"
tested_target = "bovine gamma globulin (BGG)"
test_value = 49


Form field: reported Viscosity Reduction of NC(=O)c1ccncc1 [Isonicotinamide]
52
